Sourced from PubChem BioAssay AID2060502

Test system: 885724-159-R-J1-PDC complex spheroid viability
assay-details: Anticancer human tumor 885724-159-R-J1-PDC patient-derived pancreatic adenocarcinoma cell line growth inhibition [GQUAD]
protocol-conditions: second compound 0.0316 µM; first compound 0.1 µM; active compounds read low
assay-readout: viability, T/C (%)

>>> assay_result("CC(C)n1c(=O)n(C)c2cnc3cc(F)c(-c4ccc(OCCCN5CCCCC5)nc4)cc3c21 + Cc1cnc(CNC(=O)c2c(=O)c3ccc(N4CCCN(C)CC4)nc3n3c2sc2ccccc23)cn1")
94.1
>>> assay_result("CC(C)(O)C1CCC(Nc2ccc3ncc(-c4cccc(C(F)(F)F)c4)n3n2)CC1 (stereo not given) + Cc1[nH]c2ccc(F)cc2c1-c1nc2c3cccnc3c3ncccc3c2[nH]1")
93.1
>>> assay_result("CC(=O)O[C@H]1C(=O)[C@@]2(C)[C@H]([C@H](OC(=O)c3ccccc3)[C@]3(O)C[C@H](OC(=O)[C@H](O)[C@@H](NC(=O)c4ccccc4)c4ccccc4)C(C)=C1C3(C)C)[C@]1(OC(C)=O)CO[C@@H]1C[C@@H]2O + Cc1cnc(CNC(=O)c2c(=O)c3ccc(N4CCCN(C)CC4)nc3n3c2sc2ccccc23)cn1")
97.3
>>> assay_result("Nc1ccn(C2OC(CO)C(O)C2(F)F)c(=O)n1 (stereo not given) + CN(C)c1ccc(Nc2c3ccc(NC(=O)CCN4CCCC4)cc3nc3cc(NC(=O)CCN4CCCC4)ccc23)cc1")
90.2
>>> assay_result("CC1COCCN1c1cc(C2(S(C)(=N)=O)CC2)nc(-c2ccnc3[nH]ccc23)n1 (stereo not given) + Cc1cnc(CNC(=O)c2c(=O)c3ccc(N4CCCN(C)CC4)nc3n3c2sc2ccccc23)cn1")
105

* * *

Test system: 885724-159-R-J1-PDC complex spheroid viability
assay-details: Anticancer human tumor 885724-159-R-J1-PDC cell line growth inhibition [GQUAD];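 also: spheroids exposed to agents for seven days before readout; percent of vehicle control viability where 100% = DMSO wells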
protocol-conditions: second compound 0.1 µM; first compound 0.0316 µM; active compounds read low
assay-readout: viability, T/C (%)

>>> assay_result("C=CCn1c(=O)c2cnc(Nc3ccc(N4CCN(C)CC4)cc3)nc2n1-c1cccc(C(C)(C)O)n1 + Cc1[nH]c2ccc(F)cc2c1-c1nc2c3cccnc3c3ncccc3c2[nH]1")
90.3
>>> assay_result("COc1ncnc(C2CC2)c1-c1ncc2cnn(Cc3ccc(-c4nc(C(F)(F)F)cn4C(C)C)cc3)c2n1 + CN(C)c1ccc(Nc2c3ccc(NC(=O)CCN4CCCC4)cc3nc3cc(NC(=O)CCN4CCCC4)ccc23)cc1")
103
>>> assay_result("Nc1ccn(C2OC(CO)C(O)C2(F)F)c(=O)n1 (stereo unspecified) + Cc1cnc(CNC(=O)c2c(=O)c3ccc(N4CCCN(C)CC4)nc3n3c2sc2ccccc23)cn1")
96.8
>>> assay_result("CCCS(=O)(=O)Nc1ccc(F)c(C(=O)c2c[nH]c3ncc(-c4ccc(Cl)cc4)cc23)c1F + Cc1cnc(CNC(=O)c2c(=O)c3ccc(N4CCCN(C)CC4)nc3n3c2sc2ccccc23)cn1")
124
>>> assay_result("CC1COCCN1c1cc(-c2ccnn2C)c2ccnc(-c3ccn[nH]3)c2n1 (stereo unspecified) + CN(C)c1ccc(Nc2c3ccc(NC(=O)CCN4CCCC4)cc3nc3cc(NC(=O)CCN4CCCC4)ccc23)cc1")
99.8
>>> assay_result("CC[C@@]1(O)C(=O)OCc2c1cc1n(c2=O)Cc2cc3c(CN(C)C)c(O)ccc3nc2-1 + Cc1[nH]c2ccc(F)cc2c1-c1nc2c3cccnc3c3ncccc3c2[nH]1")
93.6
>>> assay_result("CC(C)n1c(=O)n(C)c2cnc3cc(F)c(-c4ccc(OCCCN5CCCCC5)nc4)cc3c21 + CN(C)c1ccc(Nc2c3ccc(NC(=O)CCN4CCCC4)cc3nc3cc(NC(=O)CCN4CCCC4)ccc23)cc1")
109
>>> assay_result("CC1COCCN1c1cc(C2(O)CC3CCC(C2)O3)c2cnn(-c3ccn[nH]3)c2n1 (stereo unspecified) + Cc1[nH]c2ccc(F)cc2c1-c1nc2c3cccnc3c3ncccc3c2[nH]1")
96.6
>>> assay_result("CCc1c2c(nc3ccc(O)cc13)-c1cc3c(c(=O)n1C2)COC(=O)[C@]3(O)CC + Cc1cnc(CNC(=O)c2c(=O)c3ccc(N4CCCN(C)CC4)nc3n3c2sc2ccccc23)cn1")
60.4
>>> assay_result("CC(C)(O)C1CCC(Nc2ccc3ncc(-c4cccc(C(F)(F)F)c4)n3n2)CC1 (stereo unspecified) + Cc1[nH]c2ccc(F)cc2c1-c1nc2c3cccnc3c3ncccc3c2[nH]1")
97.1
>>> assay_result("O=C(c1cc(Cc2n[nH]c(=O)c3ccccc23)ccc1F)N1CCN(C(=O)C2CC2)CC1 + CN(C)c1ccc(Nc2c3ccc(NC(=O)CCN4CCCC4)cc3nc3cc(NC(=O)CCN4CCCC4)ccc23)cc1")
101
>>> assay_result("Cc1cccc(N(C)C(=O)C2C(O)CCN2c2nc(C)cc(C(F)(F)F)c2C#N)c1 (stereo unspecified) + CN(C)c1ccc(Nc2c3ccc(NC(=O)CCN4CCCC4)cc3nc3cc(NC(=O)CCN4CCCC4)ccc23)cc1")
90.3
>>> assay_result("C=CC(=O)N1CCN(c2nc(=O)n(-c3c(C)ccnc3C(C)C)c3nc(-c4c(O)cccc4F)c(F)cc23)C(C)C1 (stereo unspecified) + Cc1[nH]c2ccc(F)cc2c1-c1nc2c3cccnc3c3ncccc3c2[nH]1")
105
>>> assay_result("COc1cc(C2c3cc4c(cc3C(OC3OC5COC(C)OC5C(O)C3O)C3COC(=O)C23)OCO4)cc(OC)c1O (stereo unspecified) + Cc1[nH]c2ccc(F)cc2c1-c1nc2c3cccnc3c3ncccc3c2[nH]1")
102
>>> assay_result("O=C(NO)c1cnc(N2CCN(S(=O)(=O)c3ccc4ccccc4c3)CC2)nc1 + Cc1[nH]c2ccc(F)cc2c1-c1nc2c3cccnc3c3ncccc3c2[nH]1")
101
>>> assay_result("Cc1cccc(N(C)C(=O)C2C(O)CCN2c2nc(C)cc(C(F)(F)F)c2C#N)c1 (stereo unspecified) + Cc1[nH]c2ccc(F)cc2c1-c1nc2c3cccnc3c3ncccc3c2[nH]1")
91.3
>>> assay_result("Cn1ncnc1[C@H]1c2n[nH]c(=O)c3cc(F)cc(c23)N[C@@H]1c1ccc(F)cc1 + CN(C)c1ccc(Nc2c3ccc(NC(=O)CCN4CCCC4)cc3nc3cc(NC(=O)CCN4CCCC4)ccc23)cc1")
93.1
>>> assay_result("CC1COCCN1c1cc(C2(S(C)(=N)=O)CC2)nc(-c2ccnc3[nH]ccc23)n1 (stereo unspecified) + Cc1[nH]c2ccc(F)cc2c1-c1nc2c3cccnc3c3ncccc3c2[nH]1")
110
>>> assay_result("CC1COCCN1c1cc(-c2ccnn2C)c2ccnc(-c3ccn[nH]3)c2n1 (stereo unspecified) + Cc1cnc(CNC(=O)c2c(=O)c3ccc(N4CCCN(C)CC4)nc3n3c2sc2ccccc23)cn1")
99.4
>>> assay_result("O=C(NO)c1cnc(N2CCN(S(=O)(=O)c3ccc4ccccc4c3)CC2)nc1 + Cc1cnc(CNC(=O)c2c(=O)c3ccc(N4CCCN(C)CC4)nc3n3c2sc2ccccc23)cn1")
117
>>> assay_result("C#Cc1c(F)ccc2cc(O)cc(-c3ncc4c(N5CC6CCC(C5)N6)nc(OCC56CCCN5CC(F)C6)nc4c3F)c12 (stereo unspecified) + CN(C)c1ccc(Nc2c3ccc(NC(=O)CCN4CCCC4)cc3nc3cc(NC(=O)CCN4CCCC4)ccc23)cc1")
114
